Numbers sourced from patent US9006450B2.

Target: human ACC2 (Homo sapiens)
Construct: made in house; host or cells: insect cells (baculoviral expression system)
Sequence (O00763 129-2458 limits assumed): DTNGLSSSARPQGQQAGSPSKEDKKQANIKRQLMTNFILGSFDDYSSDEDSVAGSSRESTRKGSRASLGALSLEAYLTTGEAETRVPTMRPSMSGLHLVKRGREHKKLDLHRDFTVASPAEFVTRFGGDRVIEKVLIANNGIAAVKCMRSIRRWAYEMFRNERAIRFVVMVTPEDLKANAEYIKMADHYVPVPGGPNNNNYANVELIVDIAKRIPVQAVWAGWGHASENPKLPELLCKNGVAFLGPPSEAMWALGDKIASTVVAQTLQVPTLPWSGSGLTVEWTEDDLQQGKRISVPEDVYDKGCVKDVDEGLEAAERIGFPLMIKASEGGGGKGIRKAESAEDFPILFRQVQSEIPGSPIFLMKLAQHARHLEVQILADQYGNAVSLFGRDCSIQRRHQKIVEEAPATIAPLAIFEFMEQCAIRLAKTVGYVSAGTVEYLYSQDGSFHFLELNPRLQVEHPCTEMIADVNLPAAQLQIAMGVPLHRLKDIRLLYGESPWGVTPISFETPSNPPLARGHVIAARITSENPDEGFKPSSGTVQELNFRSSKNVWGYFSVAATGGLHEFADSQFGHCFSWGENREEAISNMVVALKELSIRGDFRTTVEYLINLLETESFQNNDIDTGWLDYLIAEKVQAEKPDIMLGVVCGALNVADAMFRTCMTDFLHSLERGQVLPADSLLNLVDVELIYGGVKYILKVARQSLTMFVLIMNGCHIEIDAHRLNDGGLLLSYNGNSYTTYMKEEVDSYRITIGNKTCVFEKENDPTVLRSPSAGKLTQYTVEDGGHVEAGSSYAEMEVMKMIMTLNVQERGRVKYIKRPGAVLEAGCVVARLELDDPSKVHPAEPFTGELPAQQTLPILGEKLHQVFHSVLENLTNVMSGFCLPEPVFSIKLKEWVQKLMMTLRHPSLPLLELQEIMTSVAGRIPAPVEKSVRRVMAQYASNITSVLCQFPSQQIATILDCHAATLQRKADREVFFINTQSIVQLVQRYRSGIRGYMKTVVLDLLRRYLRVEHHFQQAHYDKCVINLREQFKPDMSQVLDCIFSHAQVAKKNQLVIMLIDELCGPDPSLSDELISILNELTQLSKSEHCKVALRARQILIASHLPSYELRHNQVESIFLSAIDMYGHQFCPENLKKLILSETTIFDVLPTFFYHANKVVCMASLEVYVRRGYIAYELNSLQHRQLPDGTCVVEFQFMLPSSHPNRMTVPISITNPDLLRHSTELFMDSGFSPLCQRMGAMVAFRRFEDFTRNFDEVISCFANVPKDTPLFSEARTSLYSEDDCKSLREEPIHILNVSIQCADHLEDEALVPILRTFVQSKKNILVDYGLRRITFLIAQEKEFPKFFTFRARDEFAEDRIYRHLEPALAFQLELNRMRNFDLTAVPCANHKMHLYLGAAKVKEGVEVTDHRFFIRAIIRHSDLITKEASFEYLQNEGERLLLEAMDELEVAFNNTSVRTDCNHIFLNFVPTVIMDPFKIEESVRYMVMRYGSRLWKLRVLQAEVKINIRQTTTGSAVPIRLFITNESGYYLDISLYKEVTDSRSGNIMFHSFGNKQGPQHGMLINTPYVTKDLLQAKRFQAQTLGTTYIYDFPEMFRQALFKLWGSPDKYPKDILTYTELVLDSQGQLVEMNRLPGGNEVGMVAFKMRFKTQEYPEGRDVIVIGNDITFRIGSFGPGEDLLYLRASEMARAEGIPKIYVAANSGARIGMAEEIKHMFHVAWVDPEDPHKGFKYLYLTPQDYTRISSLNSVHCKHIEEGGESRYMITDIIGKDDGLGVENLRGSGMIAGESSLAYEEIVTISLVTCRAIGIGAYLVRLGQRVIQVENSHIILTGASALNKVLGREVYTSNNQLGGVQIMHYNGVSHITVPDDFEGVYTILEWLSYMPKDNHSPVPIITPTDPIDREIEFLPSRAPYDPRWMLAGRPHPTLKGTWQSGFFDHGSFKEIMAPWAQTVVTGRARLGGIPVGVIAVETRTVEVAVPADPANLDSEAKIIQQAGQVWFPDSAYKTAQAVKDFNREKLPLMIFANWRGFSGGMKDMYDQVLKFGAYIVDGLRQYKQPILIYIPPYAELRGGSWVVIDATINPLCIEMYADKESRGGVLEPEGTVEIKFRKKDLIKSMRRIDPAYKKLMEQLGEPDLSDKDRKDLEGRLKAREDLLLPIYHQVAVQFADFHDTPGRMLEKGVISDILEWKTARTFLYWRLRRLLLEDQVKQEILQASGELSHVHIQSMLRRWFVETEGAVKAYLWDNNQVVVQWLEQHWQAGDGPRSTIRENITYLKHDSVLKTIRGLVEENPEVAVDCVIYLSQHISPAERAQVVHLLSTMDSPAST
Experiment: ACC2 assay, spectrophotometric 384 well assay (NADH-linked, coupled lactate dehydrogenase/pyruvate kinase)
Format: biochemical
Conditions: ACC2 assay, hACC2 construct lacking 128 N-terminal amino acids, 25° C., 340 nm; read-out: IC50
ASSAY ENDPOINT: IC50 (nM)
Output spec: scalar in nM, unitless text.

For `CC(=O)N[C@@H](C)c1ccc(C2CCN(c3nccc(I)c3C)CC2)cc1` , what is its reported IC50?
340

Return reported IC50; argument: `C[C@H](NC(=O)C1CC1)c1ccc(C2CCN(c3ccc(OCC4CC4)cc3F)CC2)cc1`
180

Which value of IC50 has been reported for `CC(=O)N[C@@H](C)c1ccc(C2CCN(c3ncc(-c4ccc(C#N)s4)cc3F)CC2)cc1` in the records?
80

May I ask what IC50 has been recorded for `CCOc1ccc(N2CCC(c3ccc([C@H](C)NC(=O)c4cncnc4)cc3)CC2)cc1` ?
2800
